Test system: Candida albicans
METHOD: Antifungal activity against Candida albicans CBS 9975 after 24 hrs by broth microdilution method
Format: functional
SETTINGS: CBS 9975, 24 h
Positions of bridges follow the written chain, without caps; N, C: chain ends. Non-standard residues stand in square brackets, D forms with d. Residues, ends and D or L forms follow the SMILES beside them. *: point of attachment. hTyr = N[C@@H](CCc1ccc(O)cc1)C(=O)O; Palmitoyl = CCCCCCCCCCCCCCCC(=O)*; Hyp = O=C(O)[C@@H]1C[C@@H](O)CN1; AllylGly = C=CC[C@H](N)C(=O)O; Orn = NCCC[C@H](N)C(=O)O
READOUT_TYPE: MIC

List the reported MIC of each compound below.
1. CCCCCOc1ccc(-c2ccc(-c3ccc(C(=O)N[C@H]4C/C=C\C[C@@H](CO)NC(=O)[C@@H]5C[C@@H](O)CN5C(=O)[C@H](CCCN)NC(=O)[C@H](CCc5ccc(O)cc5)NC(=O)[C@@H]5C[C@@H](O)CN5C(=O)[C@H]([C@@H](C)O)NC4=O)cc3)cc2)cc1
2. CCCCCCCCCCCCCCCC(=O)N[C@H]1C/C=C\C[C@@H](C(N)=O)NC(=O)[C@@H]2C[C@@H](O)CN2C(=O)[C@H](CCCN)NC(=O)[C@H](CCc2ccc(O)cc2)NC(=O)[C@@H]2C[C@@H](O)CN2C(=O)[C@H]([C@@H](C)O)NC1=O (Palmitoyl-[AllylGly]T[Hyp][hTyr][Orn][Hyp][AllylGly]-NH2; staple (Z) 1-7)
3. CCCCCCCCCCCCCCCC(=O)N[C@H]1C/C=C\C[C@@H](C(=O)O)NC(=O)[C@@H]2C[C@@H](O)CN2C(=O)[C@H](CCCN)NC(=O)[C@H](CCc2ccc(O)cc2)NC(=O)[C@@H]2C[C@@H](O)CN2C(=O)[C@H]([C@@H](C)O)NC1=O (Palmitoyl-[AllylGly]T[Hyp][hTyr][Orn][Hyp][AllylGly]-OH; staple (Z) 1-7)

Response line:
1. > 100 µg/mL
2. > 100 µg/mL
3. > 100 µg/mL
